target: T1, recombinant human LAG3 expressed with a C-terminal myc-myc-hexahistidine tag (human, UniProt P18627 29-450); experiment: SPR, mAb captured, 25 C
T1 construct: also called hLAG3-mmh; hLAG3.mmh
T1 sequence (P18627 other isoform, or with tags, fused parts or gaps limits assumed): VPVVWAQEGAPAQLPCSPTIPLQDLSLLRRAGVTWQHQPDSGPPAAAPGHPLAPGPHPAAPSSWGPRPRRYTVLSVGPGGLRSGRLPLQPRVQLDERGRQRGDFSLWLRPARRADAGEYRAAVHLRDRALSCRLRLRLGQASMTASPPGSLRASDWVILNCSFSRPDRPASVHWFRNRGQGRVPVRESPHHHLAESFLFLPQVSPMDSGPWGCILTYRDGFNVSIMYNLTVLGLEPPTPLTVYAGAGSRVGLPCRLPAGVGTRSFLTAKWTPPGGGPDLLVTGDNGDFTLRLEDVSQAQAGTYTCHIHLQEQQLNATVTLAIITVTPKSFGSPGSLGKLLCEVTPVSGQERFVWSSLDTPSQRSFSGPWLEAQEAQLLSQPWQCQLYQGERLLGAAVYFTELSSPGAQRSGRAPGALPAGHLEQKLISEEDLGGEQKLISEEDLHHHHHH
Readout Name: t1/2 (h)
One number for each entry, in h.

// known answers, use as guide
Binder	t1/2 (h)
H4H15479P (antibody, human IgG4, V domains shown) VH: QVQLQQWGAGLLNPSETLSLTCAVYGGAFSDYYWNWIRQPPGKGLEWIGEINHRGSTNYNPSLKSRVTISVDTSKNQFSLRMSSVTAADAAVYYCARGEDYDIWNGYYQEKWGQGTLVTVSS VL: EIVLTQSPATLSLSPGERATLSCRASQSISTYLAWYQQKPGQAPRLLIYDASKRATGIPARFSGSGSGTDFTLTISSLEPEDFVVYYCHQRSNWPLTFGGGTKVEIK	3.6
H4sH15479P (antibody, V domains shown) VH: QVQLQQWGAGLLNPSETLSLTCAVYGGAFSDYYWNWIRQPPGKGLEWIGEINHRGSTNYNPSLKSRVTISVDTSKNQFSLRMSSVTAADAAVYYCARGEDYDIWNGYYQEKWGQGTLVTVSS VL: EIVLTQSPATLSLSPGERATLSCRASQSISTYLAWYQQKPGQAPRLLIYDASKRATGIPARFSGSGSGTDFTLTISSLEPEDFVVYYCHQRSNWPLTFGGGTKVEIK	3.22

Provide reported t1/2 for each item, in the same order as listed.
1. H4H15483P (antibody, human IgG4, V domains shown, H4H = human IgG4 Fc with S108P hinge mutation) VH: QVQLQQWGAGLLPPSETLSLICAVYGGSFSGYYWSWIRQPPGKGLEWIGEINHRGSTNYNPSLKSRATISVDTSKNQFSLKLSSVTAADTAVYYCSRGEDYYDSSGYSYYFDYWGQGTLVTVSS VL: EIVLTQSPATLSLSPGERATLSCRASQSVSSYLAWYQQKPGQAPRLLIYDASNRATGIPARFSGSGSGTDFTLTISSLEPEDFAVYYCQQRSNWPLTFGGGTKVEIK
2. H4H14813N (antibody, human IgG4, V domains shown, H4H = human IgG4 Fc with S108P hinge mutation) VH: QVQLQQWGAGLLKPSETLSLTCAVYGGSFSGYYWNWIRQPPGKGLEWVGEISHRGSTNYNPSLKSRVTISLDTSKNQFSLKLTSVTAADTAVYYCSRDEELEFRFFDYWGQGTLVTVSS VL: EIVLTQSPATLSLSPGERATLSCRASQSVSSYLAWYQQKPGQAPRLLVYGASNRATGIPARFSGSGSGTDFTLTISSLEPEDFAFYYCQQRSNWPLTFGGGTKVEIK

Reply |
1: 0.52; 2: 2.19

Source: patent US20170101472A1
